System: EGFR
test method notes: Western blot of EGFR tyrosine phosphorylation in NCI-H838 cells
Format: cell-based, human
experimental parameters: NSCLC cells; concentration not given; data not shown
measured property: effect on EGFR transactivation caused by ET-1

> print(dat)
                                   compound     result
1  COc1nc(C)cnc1NS(=O)(=O)c1cccnc1-c1ccc(-c2nnco2)cc1 [ZD4054, zibotentan]  inhibited
2  CC(=O)N[C@@H](CS)C(=O)O [Nacetylcysteine]  inhibited
3  CS(=O)(=O)CCNCc1ccc(-c2ccc3ncnc(Nc4ccc(OCc5cccc(F)c5)c(Cl)c4)c3c2)o1 [Lapatinib, lapatinib]  inhibited

These data points were gathered from paper PMC5421360.
